Target: COVID-19 S1 Spike Protein Mutant N354D, D364Y (SARS-CoV-2), P0DTC2
Test: FP direct binding
Non-standard residues stand in square brackets, D forms with d. No end group written: not given here. Sar = CNCC(=O)O
OBSERVATION TYPE: Kd (µM)
One number for each entry, in µM.

Query string: Fill in: Kd of ACDVCGLNAFNRCA[Sar][Sar][Sar][Sar][Sar][Sar][KFl] (cysteine pairing not given here) [BCY16287] is ___
Result string: 1.12
